biological target: DNA polymerase III (Bacillus subtilis); experiment: Compound was tested for inhibitory activity against DNA polymerase III of Bacillus subtilis
pKi: −log10 of the molar value.
The entries below come with measured pKi values attached.

compound.structure.string	target.desc	pKi
CCc1cc(Nc2cc(=O)n(CC)c(=O)[nH]2)ccc1C	DNA polymerase III (Bacillus subtilis)	6.92
CCCCn1c(=O)cc(Nc2ccc3c(c2)CCC3)[nH]c1=O	DNA polymerase III (Bacillus subtilis)	7.05
CCCn1c(=O)cc(Nc2ccc3c(c2)CCC3)[nH]c1=O	DNA polymerase III (Bacillus subtilis)	6.51

###

Each entry below carries its reported MIC.
tested on: Bacillus subtilis; assay: Minimum inhibitory concentration against Bacillus subtilis; type: functional

compound.structure.string	qualifying.sign	MIC [µM]
CCCCn1c(=O)cc(Nc2ccc3c(c2)CCC3)[nH]c1=O	=	3
Oc1cc(Nc2ccc3c(c2)CCC3)nc(O)n1	=	30
CCc1cc(Nc2cc(=O)n(CC)c(=O)[nH]2)ccc1C	=	1.5
CCCCCCn1c(=O)cc(Nc2ccc3c(c2)CCC3)[nH]c1=O	>	100
CCc1cc(Nc2cc(O)nc(O)n2)ccc1C	=	30
CCc1cc(Nc2cc(=O)n(CCO)c(=O)[nH]2)ccc1C	=	3
Cn1c(=O)cc(Nc2ccc3c(c2)CCC3)[nH]c1=O	=	5
CCc1cc(Nc2cc(=O)n(CCOC)c(=O)[nH]2)ccc1C	=	3

Measured values drawn from ChEMBL document CHEMBL1132233 for this set.
